Cited source for all entries: PubChem BioAssay

Recorded measurements of composite z-score, one per entry
# METHOD_DESCRIPTION: COS7 lysate on small-molecule microarray, probe aHis, 635 nm (AID 1123);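 note: z-score combines 667nm fluorescence intensity with signal-to-noise per printed compound spot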
# CONDITIONS: COS7 cell lysate, fluorescence, higher = more signal
MEASURE: composite z-score

O=C1c2ccccc2[C@](Cc2ccccc2I)(C(=O)NC2CC2)[C@H](c2ccc(CO)cc2)N1Cc1ccccc1 : 1.7
CN1C(=O)[C@]2(Cc3ccccc3)N=C(c3ccc(OCCCO)cc3)O[C@@H]2c2ccccc21 : 2.51
CC(C)C(CO)N1C(=O)[C@@H]2[C@H]3C(=O)OCC=C[C@H]3OC23C=CCN(C(C)C)C(=O)[C@@H]13 (some centres not stated) : -0.312
C=C(CCCC)/C(=C/C[C@@H](OC(C)=O)c1ccccc1OCCO)c1cnc2ccccc2c1 : 0.206
O=C1O[C@@H](c2ccccc2)[C@@H](c2ccccc2)N2[C@@H](c3ccccc3OCCO)[C@]3(C(=O)Nc4ccc(C#CC5=CCCCC5)cc43)[C@@H](C(=O)Nc3nc4ccccc4s3)[C@H]12 : 1.39
COc1cc2c(cc1OC)CN(C(=O)[C@@H]1[C@H]3C(=O)O[C@H](c4ccccc4)[C@H](c4ccccc4)N3[C@H](c3ccc(O)cc3)[C@@]13C(=O)Nc1ccc(C#CC4(O)CCCCCC4)cc13)CC2 : 2.01
C=CCC(OC(C)=O)[C@@H]1[C@@H](N(Cc2ccc(-c3ccccc3)cc2)C(=O)Cc2ccc(F)cc2)c2cc(OCCCO)ccc2N1C(=O)c1ccc(-c2ccccc2)cc1 (some centres not stated) : -0.338

###

# METHOD_DESCRIPTION: yeast growth modulation, basal conditions, primary screen, YJM789 clinical isolate, OD600, 24 h (AID 1089);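 note: growth of clinical yeast isolate S. cerevisiae YJM 789 seeded 1000 cells per well; test concentration not given here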
# CONDITIONS: S. cerevisiae YJM789 growth, called active from +8 up or from −8 down
Active and inactive are the calls of the source.
Outcomes: active, inactive

O=C1O[C@H](c2ccccc2)[C@H](c2ccccc2)N2[C@H]1[C@@H](C(=O)N1CCN(c3ncccn3)CC1)[C@]1(C(=O)Nc3ccc(C#CC4=CCCCC4)cc31)[C@H]2c1ccc(O)cc1 : inactive
COCC(=C=CC[C@H](O)c1ccccc1OCCO)C[C@H](O)c1cc(Cl)cc(Cl)c1O : active
[N-]=[N+]=NCc1ccccc1[C@@H]1OC(c2ccc(OCCCO)cc2)=N[C@]1(CCS(=O)(=O)c1ccccc1)C(=O)NCc1ccccc1 : inactive
CC(=O)NCCCC[C@@H]1NC(=O)[C@@H]2C[C@H](C(=O)NCCCCCCNC(=O)CS)[C@H](c3cccc(OCCO)c3)N2C1=O : inactive
O=C1O[C@H](c2ccccc2)[C@H](c2ccccc2)N2[C@H]1[C@@H](C(=O)Nc1nc3ccccc3s1)[C@]1(C(=O)Nc3ccc(C#CCCO)cc31)[C@H]2c1ccc(OCCO)cc1 : inactive
C=CCN1C(=O)[C@]2(O[C@H](CCO)[C@@H]([Si](C)(C)c3ccc(OC)cc3)[C@@H]2C)c2cc(N3CCCCC3=O)ccc21 : inactive

###

# METHOD_DESCRIPTION: small-molecule binders of probe aLefty1, primary screen, biochemical, small-molecule microarray, 635/667 nm fluorescence (AID 1153);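 note: score merges spot fluorescence with signal-to-noise ratio from the scanned slide images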
# CONDITIONS: higher = more signal
Recorded measurements of composite z-score, one per entry
MEASURE: composite z-score

COCCCNC(=O)C1N=C(c2ccc(OCCCO)cc2)N(c2ccccc2)O1 (stereo unspecified) : -0.265
C=CC[C@]12N=C(c3ccc(OCCCO)cc3)O[C@H]1c1ccccc1N(Cc1ccccc1)C2=O : 0.445
C=CCOC(=O)[C@H]1[C@@H]2C(=O)O[C@@H](c3ccccc3)[C@@H](c3ccccc3)N2[C@@H](c2ccc(OCCOC(=O)[C@H]3C[C@H]4C(=O)N5CCC[C@H]5C(=O)N4[C@H]3c3ccc(O)cc3)cc2)[C@]12C(=O)Nc1ccc(I)cc12 : 1.99
CCOC(=O)[C@H]1C/C=C/C[C@H](C(=O)OCC)C(=O)O[C@H]2[C@@H](OC)O[C@H](CO)[C@@H](OC(=O)Nc3ccc(C#N)cc3)[C@@H]2OC1=O : -0.364
COc1ccc(C(=O)O[C@H]2CC[C@]3(C)C4=C(CCC3C2(C)C)[C@]2(C)CC[C@H]([C@H](C)CCCC(C)C)[C@@]2(C)CC4)cc1 (stereo partly specified) : -0.192
COc1cc2c(cc1OC)CN(C(=O)[C@H]1[C@@H]3C(=O)O[C@@H](c4ccccc4)[C@@H](c4ccccc4)N3[C@@H](c3ccc(O)cc3)[C@]13C(=O)Nc1ccc(C#CC4=CCCCC4)cc13)CC2 : 0.35
